Target: Rabies virus glycoprotein G, strain CVS-11 (Challenge Virus Standard-11, ATCC VR 959) (Rabies virus, strain CVS-11)
Experiment: cell-based or functional assay
What CVS neutralizing antibody titre (RFFIT): IU/mg was measured for each of the following?
Don't forget the unit after the value.

Fill in CVS neutralizing antibody titre (RFFIT): IU/mg for each of the 2 binders listed.
1. 214-E8 15GS 214-E8 (VHH) EVQLVESGGGSVQAGGSLRLSCAASGGTFNPYVMAWFRQAPGNEREFVARIRWSGGDAYYDDSVKGRFAITRDAAKNTVHLQMNSLKPEDTAVYYCAAATYGYGSYTYGGSYDLWGQGTQVTVSSGGGGSGGGGSGGGGSEVQLVESGGGSVQAGGSLRLSCAASGGTFNPYVMAWFRQAPGNEREFVARIRWSGGDAYYDDSVKGRFAITRDAAKNTVHLQMNSLKPEDTAVYYCAAATYGYGSYTYGGSYDLWGQGTQVTVSS
2. 214-E8 5GS 212-C12 (VHH) EVQLVESGGGSVQAGGSLRLSCAASGGTFNPYVMAWFRQAPGNEREFVARIRWSGGDAYYDDSVKGRFAITRDAAKNTVHLQMNSLKPEDTAVYYCAAATYGYGSYTYGGSYDLWGQGTQVTVSSGGGGSEVQLVESGGGLVQPGGSLRLSCAASGFTFGSSDMSWVRQAPGKGPEWVSGINSGGGRTLYADSVKGRFTISRDNAKNTLYLQMNSLKSEDTAVYYCATDLYGSSWYTDYWSQGTQVTVSS

Result:
1: 349 IU/mg; 2: 214 IU/mg

Values from patent US20200123233A1
